Provenance of the data: patent US20210380703A1

A collection of binders and their measured optical density
Molecular target: Mouse ACVR2A (mouse, UniProt P27038 20-135, limits assumed); further: test concentration or dose not given here
Sequence (P27038 20-135 limits assumed): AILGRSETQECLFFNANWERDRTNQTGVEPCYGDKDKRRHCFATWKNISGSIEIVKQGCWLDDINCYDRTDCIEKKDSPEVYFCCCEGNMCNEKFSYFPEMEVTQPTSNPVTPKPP
Assay: ELISA
Respond with the bare value in OD.

{"Binder": "372_B04 (antibody, V domains shown) VH: EVQLLESGGGLVQPGGSLRLSCAASGFTFDSYGMNWVRQAPGKGLEWVANINYNGGYTSYADSVKGRFTISRDNSKNTLYLQMNSLRAEDTAVYYCARSANWHDTALDYWGQGTLVTVSS VL: DIQMTQSPSSLSASVGDRVTITCRASQSILSYVNWYQQKPGKAPKLVIYAATSLASGVPSRFSGSGSGTDFTLTISSLQPEDFATYYCQQSYDSPLTFGGGTKVEIK", "optical density (OD)": 3.12}

In plain terms, 368_E04 (antibody, V domains shown) VH: EVQLLESGGGLVQPGGSLRLSCAASGFTFSSYSMNWVRQAPGKGLEWVANINYNSGYTGYADSVKGRFTISRDNSKNTLYLQMNSLRAEDTAVYYCARSANWHDTALDYWGQGTLVTVSS VL: DIQMTQSPSSLSASVGDRVTITCRASQSILSYVNWYQQKPGKAPKLLIYAATSRHSGVPSRFSGSGSGTDFTLTISSLQPEDFATYYCQQSYDNPLTFGGGTKVEIK has a documented optical density of 3.23

Note to self: optical density recorded for 371_B06 (antibody, V domains shown) VH: EVQLLESGGGLVQPGGSLRLSCAASGFTFDSYSMNWVRQAPGKGLEWVAGINYNGGYKSYADSVKGRFTISRDNSKNTLYLQMNSLRAEDTAVYYCARSANWHDTALDYWGQGTLVTVSS VL: DIQMTQSPSSLSASVGDRVTITCRASQSILTYVNWYQQKPGKAPKLVIYAATSRHSGVPSRFSGSGSGTDFTLTISSLQPEDFATYYCQQSYNLPLTFGGGTKVEIK was 2.71
